# experimental_protocol: TROY pathway blockers in reporter cells – Q293 LMP1-TROYcd cells, NF-kB luciferase, uHTS, primary screen (AID 1347056)
# measurement_conditions: 4 h, at 10 µM
Out of some 360,000 compounds screened, about 3,600 (1%) were called active.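 How the source made its calls: active means compounds whose plate-normalised and pattern-corrected inhibition of the luciferase reporter signal at the single screening dose is 50% or more; inactive means the rest.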 This excerpt belongs to a sample that is enriched for actives.
Bench note: report the call from active, inactive

I'd appreciate the recorded outcome for CC(=O)OC1C2(CC3N4C(=O)C5(CO)SSC4(CC31O)C(=O)N5C)OC(C)C(C)(C)C2=O (stereo not given) from this test.
active

I'd appreciate the recorded outcome for COc1cc(Cn2c(N)c(C(=O)NCc3ccco3)c3nc4ccccc4nc32)cc(OC)c1OC from this test.
inactive

I'd appreciate the recorded outcome for CCOC(=O)C1SC2(C(F)(F)C(F)F)CC1(O)c1c(c(OC)c3occc3c1OC)O2 (stereo not given) from this test.
inactive

I'd appreciate the recorded outcome for Cc1nc2nc(C)c(CCC(=O)N3CCC4(CC3)OCCO4)c(C)n2n1 from this test.
inactive

Reference source for all entries: PubChem BioAssay AID1347056
